- Assay explanation: Cell Viability - LYMP1-002 - Assay at 24 hr (AID 993)
- Applied conditions: LYMP1-002 lymphoblastoid cells viability; series mostly up to 92.2 µM
Active and inactive are the calls of the source. Calls follow the shape of the dose curve; as a rule, active = well fitted cell-killing curve with a large enough effect; inconclusive = small, poorly fitted or top-dose-only effect; inactive = flat fitted curve, though single readings scatter.
Outcomes you can answer with include only these: active, inactive

Molecule: COc1ccc(C(=O)Nc2ccccc2)cc1[N+](=O)[O-]
Qualitative label: inactive

Status in this test for "O=C1c2ccccc2C(=O)C1(O)O" ?
inactive

What was the test verdict on "C[Si](C)(C)Cl" ?
inactive

Give the logged outcome of this assay for the following molecule: "CN(C)c1ccc(Cc2ccc(N(C)C)cc2)cc1"
inactive

Check the results log: what was the call for "C=C1CC[C@H](O)C/C1=C/C=C1\CCC[C@]2(C)[C@@H]([C@H](C)CCCC(C)C)CC[C@@H]12" ?
active

For "Cc1cc(=O)oc2cc(O)cc(O)c12" , which call appears in the assay record?
inactive

Hi, do you know how CC(=O)OC(C(=O)c1ccccc1)c1ccccc1 (stereo not drawn) came out in this test?
inactive

Hey, what did the test say about "C/C=C1/C(=O)C[C@H]2[C@@H]3CCC4=CC(=O)CC[C@]4(C)[C@H]3CC[C@]12C" ?
active

Identify the outcome logged in this assay for the molecule shown: "O=C(O)/C=C/c1ccc(/C=C/C(=O)O)cc1"
inactive

How did this test come out for CCCCC(CC)COCCCN (stereo not drawn) ?
inactive

* * *

- Assay explanation: Cell Viability - HUV-EC-C (AID 542);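 also: cells exposed to compound for 40 hours; nearly all actives have a fitted effect of over 35% in size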
- Applied conditions: HUV-EC-C endothelial cell viability, qHTS; series mostly up to 92.2 µM
Results filed as inconclusive are left out. Active and inactive are the calls of the source. Calls come from the whole dose curve; as a rule, active = well fitted cell-killing curve with a large enough effect; inconclusive = small, poorly fitted or top-dose-only effect, or effect the other way; inactive = flat fitted curve, though single readings scatter.
Write down one outcome, taken from TRUE (active), FALSE (inactive)

Use the examples below as a reference point.
Compound: C/C(Cl)=C/CCl
Qualitative label: FALSE
//
Compound: O=C(Cl)c1ccc([N+](=O)[O-])cc1
Qualitative label: FALSE
//
Compound: C=C1CC[C@H](O)C/C1=C/C=C1\CCC[C@]2(C)[C@@H]([C@H](C)CCCC(C)C)CC[C@@H]12
Qualitative label: TRUE

Identify the outcome logged in this assay for the compound shown: "Cc1ccc(S(N)(=O)=O)cc1"
FALSE

Assay result, entry "CCN(CC)c1ccc2c(C)cc(=O)oc2c1" — outcome?
FALSE

* * *

- Assay explanation: Cell Viability - LYMP2-015 (AID 971);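 also: cells exposed to compound for 24 h; nearly all actives have a fitted effect of over 55% in size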
- Applied conditions: LYMP2-015 lymphoblastoid cell viability; series mostly up to 92.2 µM
Records with an inconclusive call do not appear. The source made the active and inactive calls. Calls follow the shape of the dose curve; as a rule, active = well fitted cell-killing curve with a large enough effect; inconclusive = small, poorly fitted or top-dose-only effect; inactive = flat fitted curve, though single readings scatter.
Attribute measured: outcome

Worked cases, answers included:
Compound: c1ccc(CSCc2ccccc2)cc1
Reported result: inactive

Compound: CCC(Cl)CC(Cl)C(Cl)C(Cl)C(Cl)C(C)Cl (stereo not drawn)
Reported result: inactive

Compound: S=C(NC1CCCCC1)NC1CCCCC1
Reported result: inactive

Compound: Oc1cc(Cl)cc(Cl)c1Cl
Reported result: inactive

Compound: COc1ccc([N+](=O)[O-])cc1N
Reported result: inactive

Compound: CN(C)c1ccc(Cc2ccc(N(C)C)cc2)cc1
Reported result: inactive

Which outcome reading was recorded for the compound "Nc1ccc(N=Nc2ccccc2)c(N)c1" ?
inactive

For CCCCCCCCC1CO1 (stereo not drawn) , what is its reported outcome?
inactive

Need outcome of "O=c1[nH]ncc2ccccc12" , thanks.
inactive

Entry CCCCC(CC)COCCCN (stereo not drawn) has what outcome?
inactive

Quick check: outcome of "O=C(O)c1cc(N=Nc2ccc([N+](=O)[O-])cc2)ccc1O" ?
inactive

What measured outcome goes with "c1ccc2c(c1)ccc1ccccc12" ?
inactive

Which outcome value is on record for "CC(=O)Nc1cccc(C)c1" ?
inactive
